Source of measurements: ChEMBL document CHEMBL2146430

# experimental protocol: Metabolic stability in mouse hepatocytes assessed as compound remaining at 1 uM after 2 hrs
# Assay type: ADME, cell-based, Hepatocyte
# run parameters: read-out: Stability
measure: remaining at 2 h, 1 µM (%)
Give your result in % as a bare value.

Inquiry: What does the record list as remaining at 2 h, 1 µM for `COc1ccc2c(c1CN1CCNCC1)O/C(=C\c1n[nH]c3ccccc13)C2=O` ?
Reply text: 89

* * *

# target desc: CYP2C9 (Homo sapiens)
# Sequence (P11712 whole entry): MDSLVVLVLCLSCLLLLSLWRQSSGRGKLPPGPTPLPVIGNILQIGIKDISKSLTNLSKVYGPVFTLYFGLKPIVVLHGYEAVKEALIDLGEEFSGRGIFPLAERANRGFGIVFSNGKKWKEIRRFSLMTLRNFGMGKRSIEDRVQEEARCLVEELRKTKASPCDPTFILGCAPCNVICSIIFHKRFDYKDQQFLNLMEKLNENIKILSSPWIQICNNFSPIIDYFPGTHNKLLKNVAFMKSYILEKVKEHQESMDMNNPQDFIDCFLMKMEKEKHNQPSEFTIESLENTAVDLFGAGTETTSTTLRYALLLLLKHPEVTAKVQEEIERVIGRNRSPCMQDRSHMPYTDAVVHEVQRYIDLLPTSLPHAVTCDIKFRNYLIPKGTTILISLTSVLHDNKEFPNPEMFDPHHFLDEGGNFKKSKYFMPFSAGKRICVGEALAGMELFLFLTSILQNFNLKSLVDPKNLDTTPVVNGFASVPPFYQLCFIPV
# experimental protocol: Inhibition of CYP2C9 at 10 uM
# Type: ADME
measure: inhibition at 10 µM

Inquiry: What does the record list as inhibition at 10 µM for `COc1ccc2c(c1CN1CCNCC1)O/C(=C\c1n[nH]c3ccccc13)C2=O` ?
Reply text: < 1%
